- target: human V1a receptor (Homo sapiens)
- Sequence (P37288 whole entry): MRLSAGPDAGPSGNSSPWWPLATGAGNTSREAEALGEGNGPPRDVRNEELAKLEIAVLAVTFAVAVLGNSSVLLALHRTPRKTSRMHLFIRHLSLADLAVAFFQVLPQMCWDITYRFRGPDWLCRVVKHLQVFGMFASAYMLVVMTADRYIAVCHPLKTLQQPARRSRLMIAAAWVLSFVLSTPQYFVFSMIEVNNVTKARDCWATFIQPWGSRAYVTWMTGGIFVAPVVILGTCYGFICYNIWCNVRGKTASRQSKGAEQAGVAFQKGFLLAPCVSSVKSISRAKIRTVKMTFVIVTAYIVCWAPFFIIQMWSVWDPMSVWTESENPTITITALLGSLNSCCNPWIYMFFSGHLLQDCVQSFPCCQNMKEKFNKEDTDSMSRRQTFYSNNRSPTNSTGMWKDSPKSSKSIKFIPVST
- protocol_description: In vitro recombinant vasopressin receptor binding assay (3H-arginine vasopressin displacement), V1a
- condition_set: cloned human V1a receptor membranes, HEK-293 cells
pIC50: −log10 of the molar value.
The following molecules are shown together with reported pIC50 values.
attribute_measured: pIC50

[
  {
    "molecule": "O=C(Nc1ccc(C(=O)N2C[C@@H]3C4CCC(C4)N3Cc3ccccc32)c(Cl)c1)c1ccccc1-c1ccccc1 (some centres unmarked)",
    "attribute_measured": "pIC50",
    "test_result": 7.62
  },
  {
    "molecule": "Cc1ccc(-c2ccccc2C(=O)Nc2ccc(C(=O)N3C[C@@H]4C5CCC(C5)N4Cc4cc(Cl)ccc43)cc2)cc1 (some centres unmarked)",
    "attribute_measured": "pIC50",
    "test_result": 7.62
  },
  {
    "molecule": "O=C(Nc1ccc(C(=O)N2C[C@@H]3C4CCC(CC4)N3Cc3cc(Cl)ccc32)cc1)c1ccccc1Cl",
    "attribute_measured": "pIC50",
    "test_result": 7.89
  },
  {
    "molecule": "O=C(Nc1ccc(C(=O)N2C[C@@H]3C4CCC(C4)N3Cc3cc(Cl)ccc32)cc1)c1ccccc1F (some centres unmarked)",
    "attribute_measured": "pIC50",
    "test_result": 8.30
  },
  {
    "molecule": "Cc1ccc(-c2ccccc2C(=O)Nc2ccc(C(=O)N3C[C@@H]4C5CCC(CC5)N4Cc4cc(Cl)ccc43)cc2)cc1",
    "attribute_measured": "pIC50",
    "test_result": 7.23
  },
  {
    "molecule": "O=C(Nc1ccc(C(=O)N2C[C@@H]3C4CCC(C4)N3Cc3cc(Cl)ccc32)cc1)c1ccccc1-c1ccc(F)cc1 (some centres unmarked)",
    "attribute_measured": "pIC50",
    "test_result": 7.17
  },
  {
    "molecule": "Cc1ccc(-c2ccccc2C(=O)Nc2ccc(C(=O)N3C[C@@H]4C5CCC(C5)N4Cc4ccccc43)c(Cl)c2)cc1 (some centres unmarked)",
    "attribute_measured": "pIC50",
    "test_result": 7.46
  },
  {
    "molecule": "O=C(Nc1ccc(C(=O)N2C[C@@H]3C4CCC(C4)N3Cc3cc(Cl)ccc32)cc1)c1ccccc1Cl (some centres unmarked)",
    "attribute_measured": "pIC50",
    "test_result": 8.40
  }
]
